Test system: DU145 cells
assay_details: MTT cytotoxicity assay, DU145
Type: cell-based, human
reported_conditions: 24 h treatment, DMSO predissolved
measured_endpoint: IC50 (µM)

compound	observed
[NH2][Pt]([NH2])([Cl])[Cl] [CDDP, cisplatin, reference compound]	68.3

* * *

Tested on: HaCaT cells
assay_details: MTT cytotoxicity assay, HaCaT
Type: cell-based, human
reported_conditions: 72 h (24 h + 48 h regeneration)
pIC50: −log10 of the molar value.

compound	pIC50
[NH2][Pt]([NH2])([Cl])[Cl] [CDDP, cisplatin, reference compound]	4.76

* * *

Tested on: MCF7 cells
assay_details: MTT cytotoxicity assay, MCF7
Format: cell-based, human
reported_conditions: 72 h (24 h + 48 h regeneration)
pIC50: −log10 of the molar value.

compound	pIC50
[NH2][Pt]([NH2])([Cl])[Cl] [CDDP, cisplatin, reference compound]	4.75
